- Test system: Candida albicans
- measurementNotes: Antifungal activity against Candida albicans assessed as reduction in fungal cell growth incubated for 48 hrs by broth microdilution method
- Type: functional
Entries and their MIC

Form field, MIC with Candida albicans, item C[C@H](n1nnc(CCN2CCN(c3ccc(Cl)cc3)CC2)n1)[C@](O)(Cn1cncn1)c1ccc(F)cc1F : 0.25 to 16 µg/mL

More entries:
Form field, MIC with Candida albicans, item C[C@H](n1nnnc1CCN1CCN(c2ccc(F)cc2)CC1)[C@](O)(Cn1cncn1)c1ccc(F)cc1F : 0.12 to 16 µg/mL

Form field, MIC with Candida albicans, item CC(n1nnnc1CCN1CCN(c2ccc(Cl)cc2)CC1)C(O)(Cn1cncn1)c1ccc(F)cc1F (stereo not drawn) : 0.5 to 16 µg/mL

---

- Test system: Candida albicans
- measurementNotes: Antifungal activity against Candida albicans assessed as reduction in fungal cell growth incubated for 48 hrs by broth microdilution method
- Type: functional
Entries and their MIC

# example entries with known answers
Recorded MIC (compound OC(Cn1cncn1)(Cn1nnnc1CCN1CCN(c2ccc(Cc3ccccc3)cc2)CC1)c1ccc(F)cc1F (stereo not drawn) ): 0.5 to 16 µg/mL

Recorded MIC (compound C[C@H](n1nnnc1CCN1CCN(c2ccc([N+](=O)[O-])cc2)CC1)[C@](O)(Cn1cncn1)c1ccc(F)cc1F ): 0.12 to 16 µg/mL

Recorded MIC (compound C[C@H](n1nnnc1CCN1CCN(c2cccc(C(F)(F)F)c2)CC1)[C@](O)(Cn1cncn1)c1ccc(F)cc1F ): 0.12 to 16 µg/mL

Recorded MIC (compound C[C@H](n1nnnc1CCN1CCN(Cc2ccccc2)CC1)[C@](O)(Cn1cncn1)c1ccc(F)cc1F ): 0.12 to 16 µg/mL

Recorded MIC (compound OC(Cn1cncn1)(Cn1nnnc1CCN1CCN(c2cccc(C(F)(F)F)c2)CC1)c1ccc(F)cc1F (stereo not drawn) ): 0.5 to 16 µg/mL

Recorded MIC (compound C[C@H](n1nnc(CCN2CCN(Cc3ccccc3)CC2)n1)[C@](O)(Cn1cncn1)c1ccc(F)cc1F ): 0.25 to 16 µg/mL

Recorded MIC (compound S=c1[nH]c2c(c3nnnn13)C(c1ccc(Cl)cc1)c1ccc3ccccc3c1O2 (stereo not drawn) ): 50 to 400 µg/mL

More entries:
Recorded MIC (compound COc1ccccc1N1CCN(CCc2nnn(C(C)C(O)(Cn3cncn3)c3ccc(F)cc3F)n2)CC1 (stereo not drawn) ): 1 to 16 µg/mL

---

Entries and their MIC
- Tested on: Candida albicans
- measurementNotes: Antifungal activity against Candida albicans assessed as reduction in fungal cell growth incubated for 24 hrs by broth microdilution method
- Assay type: functional

# example entries with known answers
Recorded MIC (compound OC(Cn1cncn1)(Cn1cncn1)c1ccc(F)cc1F ): 1 to 4 µg/mL

Recorded MIC (compound Fc1cc2[nH]c(SCc3ccc(-c4ccccc4-c4nnnn4C(c4ccccc4)(c4ccccc4)c4ccccc4)cc3)nc2cc1-n1cncn1 ): 4 to 8 µg/mL

As a next step, examine the compound that follows.
Recorded MIC (compound Fc1cc2nc(SCc3ccc(-c4ccccc4-c4nnnn4C(c4ccccc4)(c4ccccc4)c4ccccc4)cc3)[nH]c2cc1-n1ccnc1 ): 8 to 16 µg/mL

---

- Tested on: Aspergillus niger
- measurementNotes: Antifungal activity against Aspergillus niger assessed as reduction in fungal cell growth incubated for 72 hrs by broth microdilution method
- Assay type: functional
Entries and their MIC

Form field, MIC with Aspergillus niger, item OC(Cn1cncn1)(Cn1nnnc1CCN1CCN(c2c(Cl)cccc2Cl)CC1)c1ccc(F)cc1F (stereo unspecified) : 0.5 to 16 µg/mL

Form field, MIC with Aspergillus niger, item CC(n1nnc(CCN2CCN(c3ccc(F)cc3)CC2)n1)C(O)(Cn1cncn1)c1ccc(F)cc1F (stereo unspecified) : 1 to 16 µg/mL

Form field, MIC with Aspergillus niger, item OC(Cn1cncn1)(Cn1nnnc1CCN1CCN(c2cccc(Cl)c2)CC1)c1ccc(F)cc1F (stereo unspecified) : 0.5 to 16 µg/mL

Form field, MIC with Aspergillus niger, item CCCCOc1ccccc1N1CCN(CCc2nnn(CC(O)(Cn3cncn3)c3ccc(F)cc3F)n2)CC1 (stereo unspecified) : 1 to 16 µg/mL

Form field, MIC with Aspergillus niger, item OC(Cn1cncn1)(Cn1nnnc1CCN1CCN(c2ccccn2)CC1)c1ccc(F)cc1F (stereo unspecified) : 0.5 to 16 µg/mL

More entries:
Form field, MIC with Aspergillus niger, item CC(n1nnc(CCN2CCN(c3cccc(C(F)(F)F)c3)CC2)n1)C(O)(Cn1cncn1)c1ccc(F)cc1F (stereo unspecified) : 1 to 16 µg/mL

Form field, MIC with Aspergillus niger, item OC(Cn1cncn1)(Cn1nnnc1CCN1CCN(c2ccccc2)CC1)c1ccc(F)cc1F (stereo unspecified) : 0.5 to 16 µg/mL

Form field, MIC with Aspergillus niger, item C[C@H](n1nnc(CCN2CCN(c3ccccn3)CC2)n1)[C@](O)(Cn1cncn1)c1ccc(F)cc1F : 0.25 to 16 µg/mL

Form field, MIC with Aspergillus niger, item COc1ccccc1N1CCN(CCc2nnn(CC(O)(Cn3cncn3)c3ccc(F)cc3F)n2)CC1 (stereo unspecified) : 1 to 16 µg/mL

Form field, MIC with Aspergillus niger, item C[C@H](n1nnc(CCN2CCN(c3ccc([N+](=O)[O-])cc3)CC2)n1)[C@](O)(Cn1cncn1)c1ccc(F)cc1F : 0.25 to 16 µg/mL

---

Entries and their Ratio
- Tested on: Candida tropicalis
- measurementNotes: Potency index, ratio for MIC of fluconazole to MIC of compound for Antifungal activity against Candida tropicalis NCIM 3110 assessed as reduction in fungal cell growth incubated for 24 hrs by broth microdilution method
- Format: functional

Recorded Ratio (compound O=c1c(OCc2nnn[nH]2)c(-c2ccc(F)cc2)oc2c(Cl)cc(Cl)cc12 ): 8 - 64

Recorded Ratio (compound O=c1c(OCc2nnn[nH]2)c(-c2ccc(F)cc2)oc2ccc(Cl)cc12 ): 16 - 64

Recorded Ratio (compound Cc1cccc2c(=O)c(OCc3nnn[nH]3)c(-c3ccc(F)cc3)oc12 ): 8 - 64

Recorded Ratio (compound O=c1c(OCc2nnn[nH]2)c(-c2ccc(F)cc2)oc2ccccc12 ): 16 - 64

Recorded Ratio (compound Cc1ccc2oc(-c3ccc(F)cc3)c(OCc3nnn[nH]3)c(=O)c2c1 ): 8 - 64

---

- Tested on: Candida parapsilosis
- measurementNotes: Antifungal activity against Candida parapsilosis ATCC 22019 assessed as reduction in fungal cell growth incubated for 48 hrs by broth microdilution method
- Format: functional
- runConditions: Lodderomyces parapsilosis, ATCC 22019, 48 h
Entries and their MIC

# example entries with known answers
Recorded MIC (compound OC(Cn1cncn1)(Cn1nnnc1CCN1CCN(c2c(Cl)cccc2Cl)CC1)c1ccc(F)cc1F (stereo unspecified) ): 0.5 to 16 µg/mL

Recorded MIC (compound CC(n1nnnc1CCN1CCN(c2ccccc2)CC1)C(O)(Cn1cncn1)c1ccc(F)cc1F (stereo unspecified) ): 0.5 to 16 µg/mL

More entries:
Recorded MIC (compound COc1ccccc1N1CCN(CCc2nnnn2CC(O)(Cn2cncn2)c2ccc(F)cc2F)CC1 (stereo unspecified) ): 0.5 to 16 µg/mL

Recorded MIC (compound CC(n1nnc(CCN2CCN(c3cccc(C(F)(F)F)c3)CC2)n1)C(O)(Cn1cncn1)c1ccc(F)cc1F (stereo unspecified) ): 1 to 16 µg/mL

Recorded MIC (compound C[C@H](n1nnc(CCN2CCN(c3cccc(Cl)c3)CC2)n1)[C@](O)(Cn1cncn1)c1ccc(F)cc1F ): 0.25 to 16 µg/mL

---

- Tested on: Aspergillus niger
- measurementNotes: Antifungal activity against Aspergillus niger assessed as reduction in fungal cell growth incubated for 72 hrs by broth microdilution method
- Assay type: functional
quantityName: MIC

# example entries with known answers
Recorded MIC (molecule CC(n1nnnc1CCN1CCN(c2ccccc2Cl)CC1)C(O)(Cn1cncn1)c1ccc(F)cc1F (configuration not stated) ): 0.5 to 16 µg/mL

Recorded MIC (molecule OC(Cn1cncn1)(Cn1nnnc1CCN1CCN(c2ccc(Cl)cc2)CC1)c1ccc(F)cc1F (configuration not stated) ): 0.5 to 16 µg/mL

Recorded MIC (molecule CCCCOc1ccccc1N1CCN(CCc2nnn(C(C)C(O)(Cn3cncn3)c3ccc(F)cc3F)n2)CC1 (configuration not stated) ): 1 to 16 µg/mL

Recorded MIC (molecule CC(n1nnnc1CCN1CCN(c2cccc(Cl)c2)CC1)C(O)(Cn1cncn1)c1ccc(F)cc1F (configuration not stated) ): 0.5 to 16 µg/mL

Recorded MIC (molecule C[C@H](n1nnc(CCN2CCN(c3ccccc3)CC2)n1)[C@](O)(Cn1cncn1)c1ccc(F)cc1F ): 0.25 to 16 µg/mL

More entries:
Recorded MIC (molecule CCCCOc1ccccc1N1CCN(CCc2nnnn2[C@@H](C)[C@](O)(Cn2cncn2)c2ccc(F)cc2F)CC1 ): 0.12 to 16 µg/mL

Recorded MIC (molecule CC(n1nnnc1CCN1CCN(c2ccccn2)CC1)C(O)(Cn1cncn1)c1ccc(F)cc1F (configuration not stated) ): 0.5 to 16 µg/mL

---

- Tested on: Candida tropicalis
- measurementNotes: Antifungal activity against Candida tropicalis assessed as reduction in fungal cell growth incubated for 48 hrs by broth microdilution method
- Type: functional
Entries and their MIC

# example entries with known answers
Recorded MIC (compound CC(n1nnc(CCN2CCN(c3ccc([N+](=O)[O-])cc3)CC2)n1)C(O)(Cn1cncn1)c1ccc(F)cc1F (centres undefined) ): 1 to 16 µg/mL

Recorded MIC (compound CC(n1nnnc1CCN1CCN(C(c2ccccc2)c2ccccc2)CC1)C(O)(Cn1cncn1)c1ccc(F)cc1F (centres undefined) ): 0.5 to 16 µg/mL

Recorded MIC (compound CC(n1nnnc1CCN1CCN(c2ccccn2)CC1)C(O)(Cn1cncn1)c1ccc(F)cc1F (centres undefined) ): 0.5 to 16 µg/mL

More entries:
Recorded MIC (compound CC(n1nnc(CCN2CCN(c3ccccc3)CC2)n1)C(O)(Cn1cncn1)c1ccc(F)cc1F (centres undefined) ): 1 to 16 µg/mL

Recorded MIC (compound CC(n1nnc(CCN2CCN(C(c3ccccc3)c3ccccc3)CC2)n1)C(O)(Cn1cncn1)c1ccc(F)cc1F (centres undefined) ): 1 to 16 µg/mL

Recorded MIC (compound CC(n1nnnc1CCN1CCN(c2cccc(C(F)(F)F)c2)CC1)C(O)(Cn1cncn1)c1ccc(F)cc1F (centres undefined) ): 0.5 to 16 µg/mL

Recorded MIC (compound C[C@H](n1nnc(CCN2CCN(Cc3ccccc3)CC2)n1)[C@](O)(Cn1cncn1)c1ccc(F)cc1F ): 0.25 to 16 µg/mL

Recorded MIC (compound C[C@H](n1nnnc1CCN1CCN(C(c2ccccc2)c2ccccc2)CC1)[C@](O)(Cn1cncn1)c1ccc(F)cc1F ): 0.12 to 16 µg/mL

Recorded MIC (compound C[C@H](n1nnc(CCN2CCN(c3ccccc3)CC2)n1)[C@](O)(Cn1cncn1)c1ccc(F)cc1F ): 0.25 to 16 µg/mL

Just for reference, ChEMBL document CHEMBL4393657 is where these values come from.
